Test: Absorption isotherm: partial pressure of R134a over sorbent material at 20° C.
Assay type: physicochemical
Details: mass fraction of the sorbent material 0.20
Attribute: Partial pressure of R134a
Report only the number, with the unit kPa understood.

CCn1cc[n+](C)c1 360
CC(=O)[O-].CCn1cc[n+](C)c1 360
CCn1cc[n+](C)c1.[Cl-] 327

API: the following record is the query input.
Input: Quick check: Partial pressure of R134a of CCn1cc[n+](C)c1.[OH-] ?
Output: 345

###

Assay: Absorption isotherm: partial pressure of 2,2,2-trifluoroethanol over sorbent material at 70° C.
Format: physicochemical
Conditions: mass fraction of ionic liquid 0.40
MEASUREMENT_NAME: Partial pressure of 2,2,2-trifluoroethanol (kPa)
Report only the number, with the unit kPa understood.

COMPOUND	QUANTITATIVE_RESULT
C[N+](C)(CCO)CCO.[Cl-] [Salt A]	11.1
CC(=O)[O-].CCn1cc[n+](C)c1 [EMIM OAc]	3.7
CCCCn1cc[n+](C)c1.[Br-] [BMIM Br, 1-butyl-3-methylimidazolium bromide, reference compound]	15.1

API: the following record is the query input.
Input: Quick check: Partial pressure of 2,2,2-trifluoroethanol of CCn1cc[n+](C)c1.CS(=O)(=O)[O-] [EMIM MeSO3] ?
Output: 13.5

###

Assay: Absorption isotherm: partial pressure of 2,2,2-trifluoroethanol over sorbent material at 70° C.
Format: physicochemical
Conditions: mass fraction of ionic liquid 0.60
Excerpt: Absorption isotherms result from the amount of a volatile component (here the refrigerant) which, at a predetermined temperature and at pressures which are generally lower than the vapor pressure of the pure refrigerant; dissolves, in an equilibrium state, in a very high-boiling or nonvolatile liquid (here the sorbent material). […]
Attribute: Partial pressure of 2,2,2-trifluoroethanol

COMPOUND	RESULT
CCCC[n+]1ccc(C)cc1.[Cl-] [MBP Cl, 1-butyl-4-methylpyridinium chloride]	1.3 kPa
CC(=O)[O-].CCn1cc[n+](C)c1	0.8 kPa
C[N+](C)(CCO)CCO.[Cl-] [Salt A]	3.6 kPa

Input: Quick check: Partial pressure of 2,2,2-trifluoroethanol of CCn1cc[n+](C)c1.CS(=O)(=O)[O-] ?
Output: 4.6 kPa

Input: Quick check: Partial pressure of 2,2,2-trifluoroethanol of CCn1cc[n+](C)c1.[Cl-] ?
Output: 1.0 kPa

Input: Quick check: Partial pressure of 2,2,2-trifluoroethanol of CCCCn1cc[n+](C)c1.F[B-](F)(F)F [BMIM BF4, reference compound] ?
Output: 35.9 kPa

Input: Quick check: Partial pressure of 2,2,2-trifluoroethanol of CCCCn1cc[n+](C)c1.[Br-] [BMIM Br, 1-butyl-3-methylimidazolium bromide, reference compound] ?
Output: 5.6 kPa

Input: Quick check: Partial pressure of 2,2,2-trifluoroethanol of CCn1cc[n+](C)c1.[OH-] ?
Output: <0.1 kPa

###

Attribute: Partial pressure of 2,2,2-trifluoroethanol
Assay: Absorption isotherm: partial pressure of 2,2,2-trifluoroethanol over sorbent material at 70° C.
Assay type: physicochemical
Settings: mass fraction of ionic liquid 0.20
Report only the number, with the unit kPa understood.

COMPOUND	QUANTITATIVE_RESULT
CCn1cc[n+](C)c1.CS(=O)(=O)[O-]	39.7

Input: Quick check: Partial pressure of 2,2,2-trifluoroethanol of CCn1cc[n+](C)c1.[OH-] ?
Output: 5.0

Input: Quick check: Partial pressure of 2,2,2-trifluoroethanol of CCCCn1cc[n+](C)c1.[Br-] [BMIM Br, 1-butyl-3-methylimidazolium bromide, reference compound] ?
Output: 42.2

Input: Quick check: Partial pressure of 2,2,2-trifluoroethanol of CCCC[n+]1ccc(C)cc1.[Cl-] [MBP Cl, 1-butyl-4-methylpyridinium chloride] ?
Output: 25.2

Input: Quick check: Partial pressure of 2,2,2-trifluoroethanol of CC(=O)[O-].CCn1cc[n+](C)c1 ?
Output: 24.7
